A collection of compounds and their measured growth
# Test system: HCT-116 colon
# Experiment Summary: NCI-60 one-dose screen, 48 h (100 = growth as untreated, 0 = no growth, -100 = all killed)
# Setup Conditions: 10 µM unless noted
The panel holds about 83,000 compounds, 20% with a hit somewhere; the sample as a whole holds those more often.
Quick note: give the figure in %, leave out the unit.

## Input Could you tell me which growth is on file for CC(=O)c1c[nH]c2ccc(-c3ccnc(Nc4ccc(NC(=O)c5cccc(F)c5)c(CN5CCOCC5)c4)n3)cc12 ?
## Output 2.26

Further cases:
## Input Could you tell me which growth is on file for COc1ccc(Cc2nc3cc(OC)c(OC)cc3c(=O)[nH]2)cc1 ?
## Output 72.6

## Input Could you tell me which growth is on file for CC(C)(C)CC(C)(C)Nc1c(-c2ccc(C(F)(F)F)cc2)nc2cnccn12 ?
## Output -5.73

## Input Could you tell me which growth is on file for NC(=O)c1cccc(-c2ccccc2N2CCCCC2)c1 ?
## Output 89.4

## Input Could you tell me which growth is on file for Cc1ccccc1C(c1ccccc1)c1ccccc1C ?
## Output 73.2

## Input Could you tell me which growth is on file for CCOC(=O)N1CCN(CCCCl)CC1 ?
## Output 93.8

## Input Could you tell me which growth is on file for C=C1C(=O)O[C@H]2[C@H]1CC/C(COC(=O)CCCc1c[nH]c3ccccc13)=C\CC[C@@]1(C)O[C@@H]21 ?
## Output -77.5

## Input Could you tell me which growth is on file for Cn1c(=O)c2[nH]c(CCCc3nc4c([nH]3)c(=O)n(C)c(=O)n4C)nc2n(C)c1=O ?
## Output 108

## Input Could you tell me which growth is on file for COc1ccc(CNCCN2C(=O)c3ccc4c5c(ccc(c35)C2=O)C(=O)N(CCNCc2ccc(OC)cc2)C4=O)cc1 ?
## Output -72.4

## Input Could you tell me which growth is on file for CCCCCOc1ccc(/C=N/Nc2cc(C)nc3ccc(Br)cc23)cc1 ?
## Output -79.9

---

# Tested on: SF-295 CNS
# Experiment Summary: NCI-60 one-dose screen, 48 h (100 = growth as untreated, 0 = no growth, -100 = all killed)
# Setup Conditions: 10 µM unless noted
The panel holds about 83,000 compounds, 20% with a hit somewhere; the sample as a whole holds those more often.
A collection of molecules and their measured growth
Quick note: give the figure in %, leave out the unit.

## Input Could you tell me which growth is on file for Fc1ccc(C2CC(c3cccc(Nc4ccncc4)c3)=NN2c2ccc(Cl)cc2)cc1 (stereo unspecified) ?
## Output 66.5

Further cases:
## Input Could you tell me which growth is on file for COc1ccc(-c2c(-c3ccccc3)noc2N)cc1OC ?
## Output 103

---

# Test system: MDA-MB-231 breast
# Experiment Summary: NCI-60 one-dose screen, 48 h (100 = growth as untreated, 0 = no growth, -100 = all killed)
# Setup Conditions: 10 µM unless noted
This is part of a sample that, as a whole, favours compounds with a hit. Of some 83,000 tested, about 20% had one in any assay.
Experimental Readout: growth (%)
Quick note: give the figure in %, leave out the unit.

## Input Could you tell me which growth is on file for O=C(NCCc1ccccn1)OCc1nc2nc(Cl)nc(N3CCOCC3)c2[nH]1 ?
## Output 28.5

## Input Could you tell me which growth is on file for C=C1C(=O)O[C@H]2[C@H]1CC/C(COC(=O)CCCc1c[nH]c3ccccc13)=C\CC[C@@]1(C)O[C@@H]21 ?
## Output 35.4

## Input Could you tell me which growth is on file for O=C1CCCCCCCCC(O)C(O)CCCC(c2cccs2)O1 (stereo not drawn) ?
## Output 84.8

## Input Could you tell me which growth is on file for COc1cc2nc(-c3ccc(C(F)(F)F)cc3)cc(OCCN3CCC(O)CC3)c2cc1OC ?
## Output 49.1
